Reported MIC values follow for various molecules
system: Staphylococcus aureus; test: Antibacterial activity against vancomycin intermediate and methicillin resistant Staphylococcus aureus ATCC 700698; format: functional
READOUT_NAME: MIC

INSERT INTO measurements (molecule, readout_name, meas_value) VALUES
  ('O=C(Nc1ccc(Cl)cc1)Nc1ccc(Cl)c(C(F)(F)F)c1 [CLOFLUCARBAN]', 'MIC', '0.72 µM'),
  ('O=C(Nc1ccc(OC(F)(F)F)cc1)Nc1ccc(Cl)c(C(F)(F)F)c1', 'MIC', '0.63 µM'),
  ('O=C(Nc1ccc(Cl)c(C(F)(F)F)c1)Nc1cc(Cl)ccc1F', 'MIC', '1.36 µM'),
  ('O=C(Nc1ccc(Cl)c(C(F)(F)F)c1)Nc1ccc(Cl)c(C(F)(F)F)c1', 'MIC', '1.2 µM');

----------
experiment: Cytotoxicity against human HeLa cells by SRB assay; type: toxicity, cell-based
Reported log10(IC50) values follow for various compounds
READOUT_NAME: log10(IC50) (log10 of the value in µM)

INSERT INTO results (entry_smiles, meas_value) VALUES
  ('O=C(Nc1ccc(OC(F)(F)F)cc1)Nc1ccc(Cl)c(C(F)(F)F)c1', 0.97),
  ('O=C(Nc1ccc(Cl)cc1)Nc1ccc(Cl)c(C(F)(F)F)c1', 0.65),
  ('O=C(Nc1ccc(OC(F)(F)F)cc1)N1CCN(c2ccc(Cl)c(C(F)(F)F)c2)C1=O', 2.00),
  ('O=C(Nc1ccc(Cl)c(C(F)(F)F)c1)Nc1cc(F)c(F)c(F)c1F', 0.95),
  ('CNC(=O)c1cc(Oc2ccc(NC(=O)Nc3ccc(Cl)c(C(F)(F)F)c3)cc2)ccn1', 0.52),
  ('O=C(Nc1ccc2c(c1)OC(F)(F)O2)Nc1ccc(Cl)c(C(F)(F)F)c1', 0.96),
  ('O=C(Nc1ccc(Cl)c(C(F)(F)F)c1)Nc1ccc(Cl)c(C(F)(F)F)c1', 0.43);

----------
tested on: Staphylococcus aureus; assay: Bactericidal activity against methicillin resistant Staphylococcus aureus ATCC 43300; format: functional
READOUT_NAME: MBC

INSERT INTO results (entry_smiles, system_name, meas_value) VALUES
  ('O=C(Nc1ccc(OC(F)(F)F)cc1)Nc1ccc(Cl)c(C(F)(F)F)c1', 'Staphylococcus aureus', '> 161 µM'),
  ('O=C(Nc1ccc(Cl)c(C(F)(F)F)c1)Nc1ccc(Cl)c(C(F)(F)F)c1', 'Staphylococcus aureus', '9.59 µM'),
  ('O=C(Nc1ccc2c(c1)OC(F)(F)O2)Nc1ccc(Cl)c(C(F)(F)F)c1', 'Staphylococcus aureus', '2.53 µM'),
  ('O=C(Nc1ccc(Cl)c(C(F)(F)F)c1)Nc1cc(F)c(F)c(F)c1F', 'Staphylococcus aureus', '10.3 µM'),
  ('O=C(Nc1ccc(Cl)cc1)Nc1ccc(Cl)c(C(F)(F)F)c1', 'Staphylococcus aureus', '> 45.8 µM');

----------
system: Enterococcus faecium; assay: Antibacterial activity against Vanomycin-resistant Enterococcus faecium ATCC 51559; type: functional
In plain terms, low MIC, meaning strictly below 5 µM, gives class 1, and everything else gives class 0.

INSERT INTO results (entry_smiles, category) VALUES
  ('O=C(Nc1ccc(OC(F)F)cc1)Nc1ccc(Cl)c(C(F)(F)F)c1', 'class 0'),
  ('O=C(Nc1ccc(C(F)(F)F)cc1)Nc1ccc(Cl)c(C(F)(F)F)c1', 'class 0'),
  ('C[C@H]1COc2c(N3CCN(C)CC3)c(F)cc3c(=O)c(C(=O)O)cn1c23', 'class 0'),
  ('O=C(Nc1ccc(Cl)c(C(F)(F)F)c1)Nc1ccc(Cl)c(C(F)(F)F)c1', 'class 1'),
  ('O=C(Nc1ccc(Cl)c(C(F)(F)F)c1)Nc1cc(Cl)ccc1F', 'class 1'),
  ('O=C(Nc1ccc(F)cc1)Nc1ccc(Cl)c(C(F)(F)F)c1', 'class 0'),
  ('O=C(Nc1ccc2c(c1)OC(F)(F)O2)Nc1ccc(Cl)c(C(F)(F)F)c1', 'class 0'),
  ('O=C(Nc1ccc(OC(F)(F)F)cc1)Nc1ccc(Cl)c(C(F)(F)F)c1', 'class 1'),
  ('O=C(Nc1ccc(Cl)c(F)c1)Nc1ccc(Cl)c(C(F)(F)F)c1', 'class 0'),
  ('CNC(=O)c1cc(Oc2ccc(NC(=O)Nc3ccc(Cl)c(C(F)(F)F)c3)cc2)ccn1', 'class 0'),
  ('O=C(Nc1ccc(Cl)c(C(F)(F)F)c1)Nc1cc(F)c(F)cc1Cl', 'class 0'),
  ('O=C(Nc1ccc(Cl)c(C(F)(F)F)c1)Nc1cc(Cl)c(F)cc1F', 'class 0'),
  ('O=C(Nc1ccc(Cl)cc1)Nc1ccc(Cl)c(C(F)(F)F)c1', 'class 1'),
  ('O=C(Nc1ccc(Cl)c(C(F)(F)F)c1)Nc1cc(F)c(F)c(F)c1F', 'class 1');
